Measured values drawn from patent US20250163149A1 for this set.

Biological target: T1, synthetic peptide S155 of the RAGE V-domain (amino acids 39-65) (human)
T1 construct: injected as analyte in SPR; also called RAGE synthetic peptide
T1 peptide: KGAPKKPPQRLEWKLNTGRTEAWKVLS
Test: SPR (Biacore T200), antibody amine-coupled to a CM5 chip as ligand, RAGE peptide S155 (BioRad) as analyte, multi-cycle kinetics, 1:1 fit; 'No steady state.'
Each item that follows carries a reported koff.
Outcome Measure: koff (s⁻¹)

1. murine BG7 anti-RAGE monoclonal antibody (antibody, V domains shown, Murine hybridoma antibody) VH: EVKLDETGGGLVQPGRPMKLSCIASGFTLSDYWMNWVRQSPEKGLEWVAQIRNRPYNFETLYSDSVKGRFIISRDDSKNSVYLQMDNLGPDDSGIYYCSSYRYGLAYWGQGTLVTVSA VL: DILLTQSPAILSVSPGERVSISCRASQTIDKRIHWYQQRTNGSPRLLIKYMSESISGTPSRFSGSGSGTDFTLTINSVESEDIAVYYCQQTNYWPITFGSGTKLELK :: 0.02
2. murine CG7 (mCG7) anti-RAGE monoclonal antibody (antibody, V domains shown, Murine hybridoma antibody) VH: QVQLKQSGPGLVQPSQSLSITCTVSGFSLTNYGVHWVRQSPGKGLEWLGVIWTGGNTDYNAAFISRLSITKDNSKSQVFFKMNSLQANDTAIYYCARNLRGGYYGAWFAYWGQGTLVTVSA VL: DVVMTQTPLSLPVSLGDQASISCRSSQTLVHSNGNTYLHWYLQKPGQSPKLLIYKVSNRFSGVPDRFTGSGSGTDFTLKISRVEAEDLGVYFCSQSTHVPPLTFGAGTKLELK :: 0.00901
3. murine IG7 anti-RAGE monoclonal antibody (antibody, V domains shown, Same VH and VL as BG7; also called ID7) VH: EVKLDETGGGLVQPGRPMKLSCIASGFTLSDYWMNWVRQSPEKGLEWVAQIRNRPYNFETLYSDSVKGRFIISRDDSKNSVYLQMDNLGPDDSGIYYCSSYRYGLAYWGQGTLVTVSA VL: DILLTQSPAILSVSPGERVSISCRASQTIDKRIHWYQQRTNGSPRLLIKYMSESISGTPSRFSGSGSGTDFTLTINSVESEDIAVYYCQQTNYWPITFGSGTKLELK :: 0.00326
4. murine HA9 (mHA9) anti-RAGE monoclonal antibody (antibody, V domains shown, Murine hybridoma antibody, purified on protein G; also called HA9 clone) VH: EVKLVETGGGLVQPGRPMKLSCVASGFTLSDHWMNWVRQSPEKGLEWVAQIRNRPYKFEKYYSDSVKGRFTISRDDSKNSVYLQMNNLRAEDMGIYYCSSYRYGLAYWGQGTLVTVST VL: DNLLTQSPAILSVSPGERVSFSCRASQTIDTRIHWYQQRKNGSPRLLIRYISESLSGIPSRFSGSGSGTEFTLTINSVESEDIADYYCQQTESWPITFGSGTKLEIK :: 0.0033
